# MEASUREMENT TARGET: aggregated tau (4R-tau) in PSP brain tissue homogenates (Homo sapiens, UniProt P10636)
# Construct: from tissue
# Sequence (P10636 1-441 isoform P10636-8): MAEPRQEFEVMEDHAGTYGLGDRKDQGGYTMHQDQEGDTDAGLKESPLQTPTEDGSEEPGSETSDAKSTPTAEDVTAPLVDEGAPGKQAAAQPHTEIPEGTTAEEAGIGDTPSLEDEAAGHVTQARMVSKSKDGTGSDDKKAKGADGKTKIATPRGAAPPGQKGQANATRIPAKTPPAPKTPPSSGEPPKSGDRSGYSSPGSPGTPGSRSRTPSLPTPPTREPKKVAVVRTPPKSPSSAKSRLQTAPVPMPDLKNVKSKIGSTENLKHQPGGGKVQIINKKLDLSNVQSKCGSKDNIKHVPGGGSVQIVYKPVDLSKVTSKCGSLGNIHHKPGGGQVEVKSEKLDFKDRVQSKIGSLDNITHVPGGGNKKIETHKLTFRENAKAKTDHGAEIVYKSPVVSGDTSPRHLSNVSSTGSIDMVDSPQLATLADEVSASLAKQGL
# ASSAY PROCEDURE: In vitro competition (Ki) assay versus [^3H]75, PSP brain tissue homogenate
# Format: binding
# RUN CONDITIONS: PSP tissue; +10 μM Ro-41-1040 (MAO-A inhibitor) and 10 μM deprenyl (MAO-B inhibitor); n = 3, mean ± SD
OBSERVABLE: pKi
Here pKi is given on a logarithmic scale as minus log10 of the concentration in mol/L.

System aggregated tau (4R-tau) in PSP brain tissue homogenates (Homo sapiens, UniProt P10636). Read-out pKi. Item Fc1ccc(-c2ccc3c(c2)[nH]c2ccncc23)cn1 [Compound 1, flortaucipir] . Report value. 5.73

----------
# MEASUREMENT TARGET: aggregated tau (4R-tau) in CBD brain tissue homogenates (Homo sapiens, UniProt P10636)
# Sequence (P10636 1-441 isoform P10636-8): as above
# ASSAY PROCEDURE: In vitro competition (Ki) assay versus [^3H]75, CBD brain tissue homogenate
# Type: binding
# Set-up: from tissue; host or cells: post-mortem human CBD brain, middle frontal gyrus homogenate
OBSERVABLE: pKi
Here pKi is given on a logarithmic scale as minus log10 of the concentration in mol/L.

System aggregated tau (4R-tau) in CBD brain tissue homogenates (Homo sapiens, UniProt P10636). Read-out pKi. Item Fc1ccc(-c2ccc3c(c2)[nH]c2ccncc23)cn1 . Report value. 5.67

----------
Each entry below carries its recorded Ki.
# MEASUREMENT TARGET: aggregated tau (4R-tau) in PSP brain tissue homogenates (Homo sapiens)
# Construct: from tissue
# ASSAY PROCEDURE: In vitro competition (Ki) assay versus [^3H]75, PSP brain tissue homogenate
# Format: binding
# RUN CONDITIONS: PSP brain tissue homogenate; radioligand [^3H]75; n = 3, mean ± SD
Report as a plain number; the unit nM is understood.

# COMPOUND, REPORTED VALUE
records = [
    ("OCC1CCN(c2ccc(-c3cc4cc(O)ccc4[nH]3)c(F)n2)CC1 [Compound 5]", 566),
]

Annotate the compound CNc1ccc(/C=C/C=C/c2nc3ccc(OCC(O)CF)cc3s2)cn1 (stereo not drawn) [Compound 3, florzolotau] with its measured Ki. 123

Annotate the compound Nc1c(F)ccc2cnc(-n3ccc4ccncc43)cc12 [Compound 4, florquinitau] with its measured Ki. 780

----------
# MEASUREMENT TARGET: N neuronal alpha7 (h) (Homo sapiens, UniProt P36544)
# Sequence (P36544 23-502): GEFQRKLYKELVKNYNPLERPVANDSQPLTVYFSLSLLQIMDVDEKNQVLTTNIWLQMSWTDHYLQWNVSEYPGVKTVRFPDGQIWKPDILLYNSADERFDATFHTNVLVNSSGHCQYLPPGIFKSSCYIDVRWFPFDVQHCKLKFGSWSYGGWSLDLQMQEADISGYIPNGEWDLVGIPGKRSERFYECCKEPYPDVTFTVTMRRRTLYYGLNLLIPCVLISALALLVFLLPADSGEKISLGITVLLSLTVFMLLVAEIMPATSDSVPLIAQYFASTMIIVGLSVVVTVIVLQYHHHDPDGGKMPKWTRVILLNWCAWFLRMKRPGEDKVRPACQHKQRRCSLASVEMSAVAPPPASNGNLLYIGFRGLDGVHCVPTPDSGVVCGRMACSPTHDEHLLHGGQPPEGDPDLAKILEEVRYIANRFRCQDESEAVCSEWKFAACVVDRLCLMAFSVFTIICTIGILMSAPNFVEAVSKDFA
# ASSAY PROCEDURE: Eurofins panel: N neuronal alpha7 (h) (antagonist radioligand)
# RUN CONDITIONS: read-out: Concurrent Ki (Specific binding), reference compound
OBSERVABLE: pKi
Here pKi is given on a logarithmic scale as minus log10 of the concentration in mol/L.

Annotate the compound Clc1ccc(C2CC3CCC2N3)cn1 (racemic) [(±)epibatidine] with its measured pKi. 6.90

----------
# MEASUREMENT TARGET: mGluR5 (h) (Homo sapiens, UniProt P41594)
# Sequence (P41594 21-1212): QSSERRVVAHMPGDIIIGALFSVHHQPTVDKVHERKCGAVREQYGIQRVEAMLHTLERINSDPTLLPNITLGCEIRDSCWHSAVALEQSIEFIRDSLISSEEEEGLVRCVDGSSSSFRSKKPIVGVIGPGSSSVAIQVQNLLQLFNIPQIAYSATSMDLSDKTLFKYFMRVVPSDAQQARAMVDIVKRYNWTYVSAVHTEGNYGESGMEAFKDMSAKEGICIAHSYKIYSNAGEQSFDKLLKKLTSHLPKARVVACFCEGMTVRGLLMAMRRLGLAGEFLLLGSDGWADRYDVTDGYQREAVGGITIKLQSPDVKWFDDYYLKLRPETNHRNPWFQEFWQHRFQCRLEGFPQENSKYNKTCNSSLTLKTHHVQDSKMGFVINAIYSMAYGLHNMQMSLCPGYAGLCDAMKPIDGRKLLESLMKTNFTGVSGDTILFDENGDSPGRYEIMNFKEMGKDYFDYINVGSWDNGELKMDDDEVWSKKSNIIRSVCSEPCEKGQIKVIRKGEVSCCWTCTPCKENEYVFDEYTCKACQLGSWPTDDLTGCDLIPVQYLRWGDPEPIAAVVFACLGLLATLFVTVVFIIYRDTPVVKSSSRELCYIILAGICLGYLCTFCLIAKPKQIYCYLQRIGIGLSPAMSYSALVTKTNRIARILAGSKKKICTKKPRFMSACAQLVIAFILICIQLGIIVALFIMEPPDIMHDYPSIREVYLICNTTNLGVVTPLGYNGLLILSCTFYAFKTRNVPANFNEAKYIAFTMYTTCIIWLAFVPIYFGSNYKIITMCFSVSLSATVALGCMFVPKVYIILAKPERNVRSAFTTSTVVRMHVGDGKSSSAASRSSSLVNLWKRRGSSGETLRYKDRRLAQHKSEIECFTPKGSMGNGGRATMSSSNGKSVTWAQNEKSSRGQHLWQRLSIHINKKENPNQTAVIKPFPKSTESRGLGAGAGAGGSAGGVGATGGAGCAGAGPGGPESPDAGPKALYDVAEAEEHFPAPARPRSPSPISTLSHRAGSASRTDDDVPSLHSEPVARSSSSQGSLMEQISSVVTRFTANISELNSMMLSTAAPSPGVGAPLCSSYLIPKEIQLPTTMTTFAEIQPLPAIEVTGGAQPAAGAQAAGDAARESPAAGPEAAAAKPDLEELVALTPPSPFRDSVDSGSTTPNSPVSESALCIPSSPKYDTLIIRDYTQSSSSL
# ASSAY PROCEDURE: Eurofins panel: mGluR5 (h) (agonist radioligand)
# RUN CONDITIONS: read-out: Concurrent Ki, Specific binding; reference compound; mGluR5 (h)
OBSERVABLE: pKi
Here pKi is given on a logarithmic scale as minus log10 of the concentration in mol/L.

Annotate the molecule N[C@@H](Cn1oc(=O)[nH]c1=O)C(=O)O [L-Quisqualate] with its measured pKi. 7.95
